B1: CDC25A (parent)
chain: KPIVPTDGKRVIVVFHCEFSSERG

# Variants of: B1
# assay_info: protein stability index of a GFP-peptide fusion (GPS, HEK-293T) (PSI 1-6); higher = more stable;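 also: lentivirally expressed fusions sorted by FACS into six bins by GFP to DsRed ratio, PSI derived from sequencing read proportions per bin multiplied by bin number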
# stated_conditions: c terminus: a fixed tail appended
Note to self: values exactly at 3 are Fulfilled. So protein stability index at or above 3 is Fulfilled, below is Not fulfilled.

polymer_sequence: KPIVPTDGKRVIVVFHCEFSDERG [S21D]
answer_label: Not fulfilled
--
polymer_sequence: KPIVPTDGKRVIVVFHCEVSSERG [F19V]
answer_label: Not fulfilled
--
polymer_sequence: KPIVPTDPKRVIVVFHCEFSSERG [G8P]
answer_label: Not fulfilled
--
polymer_sequence: KPIVPYDGKRVIVVFHCEFSSERG [T6Y]
answer_label: Not fulfilled
--
polymer_sequence: KPIVLTDGKRVIVVFHCEFSSERG [P5L]
answer_label: Not fulfilled
--
polymer_sequence: KPIVPTDGKRVIVVFHCEFSSQRG [E22Q]
answer_label: Not fulfilled
--
polymer_sequence: KPIVPQDGKRVIVVFHCEFSSERG [T6Q]
answer_label: Fulfilled
--
polymer_sequence: KPIVPTDGKWVIVVFHCEFSSERG [R10W]
answer_label: Fulfilled
--
polymer_sequence: KPIVPTDGKRVGVVFHCEFSSERG [I12G]
answer_label: Fulfilled
--
polymer_sequence: KPIVPTDGKRVIDVFHCEFSSERG [V13D]
answer_label: Fulfilled
--
polymer_sequence: YPIVPTDGKRVIVVFHCEFSSERG [K1Y]
answer_label: Not fulfilled
--
polymer_sequence: KPIVPTDGKRVIAVFHCEFSSERG [V13A]
answer_label: Not fulfilled
--
polymer_sequence: KPIVPTDGKRVIVCFHCEFSSERG [V14C]
answer_label: Not fulfilled
--
polymer_sequence: KPIVPTDGKRVIVVFHCEISSERG [F19I]
answer_label: Not fulfilled
--
polymer_sequence: KPIVPTDGKRVIVVFHCEFSSERV [G24V]
answer_label: Not fulfilled
--
polymer_sequence: KPIMPTDGKRVIVVFHCEFSSERG [V4M]
answer_label: Not fulfilled
--
polymer_sequence: KPIVPTDGKRVIVVFHTEFSSERG [C17T]
answer_label: Not fulfilled
--
polymer_sequence: KPIVPTDGKRVIVVFECEFSSERG [H16E]
answer_label: Not fulfilled
--
polymer_sequence: KPIVPTDGKGVIVVFHCEFSSERG [R10G]
answer_label: Not fulfilled
--
polymer_sequence: KPIVPTDGKRVIVVFHCEFSSHRG [E22H]
answer_label: Not fulfilled
--
polymer_sequence: KPIVPTDGKRVIVVFHCEFSHERG [S21H]
answer_label: Not fulfilled
--
polymer_sequence: KPIVPTDGKRVIVVFHCNFSSERG [E18N]
answer_label: Not fulfilled
--
polymer_sequence: KPIVPTDGKRVIVVFLCEFSSERG [H16L]
answer_label: Fulfilled
--
polymer_sequence: KPIVPTDGKRVIVVFHFEFSSERG [C17F]
answer_label: Not fulfilled
--
polymer_sequence: KPIVPTDGKRVIVVFHCEFSSEHG [R23H]
answer_label: Not fulfilled
--
polymer_sequence: KPINPTDGKRVIVVFHCEFSSERG [V4N]
answer_label: Fulfilled
--
polymer_sequence: KPIVPTDGKRVIVVFHCEHSSERG [F19H]
answer_label: Not fulfilled
--
polymer_sequence: KPIVPTDGKRVEVVFHCEFSSERG [I12E]
answer_label: Not fulfilled
--
polymer_sequence: KPIVPTDGKRVIVVFSCEFSSERG [H16S]
answer_label: Fulfilled
--
polymer_sequence: KPIVPTDGTRVIVVFHCEFSSERG [K9T]
answer_label: Not fulfilled
--
polymer_sequence: KPIVPTDGKRVIPVFHCEFSSERG [V13P]
answer_label: Fulfilled
--
polymer_sequence: KPIVPTDGKRVIVVFHCEFSSECG [R23C]
answer_label: Not fulfilled
--
polymer_sequence: KPIVPTDGKRVIVVFHCEFSFERG [S21F]
answer_label: Not fulfilled
--
polymer_sequence: KPIVPTDGKRVAVVFHCEFSSERG [I12A]
answer_label: Not fulfilled
--
polymer_sequence: KPIVPTDGKCVIVVFHCEFSSERG [R10C]
answer_label: Fulfilled
--
polymer_sequence: KPIVPTDGKRVIVVFHIEFSSERG [C17I]
answer_label: Not fulfilled
--
polymer_sequence: KPIVPTDGKRVIVMFHCEFSSERG [V14M]
answer_label: Not fulfilled
--
polymer_sequence: KPIVPTDAKRVIVVFHCEFSSERG [G8A]
answer_label: Not fulfilled
--
polymer_sequence: KPIVPTDGKRVIVVFHCEFPSERG [S20P]
answer_label: Not fulfilled
--
polymer_sequence: KPIVPTDGKRVIVPFHCEFSSERG [V14P]
answer_label: Fulfilled
--
polymer_sequence: KPIVPTDGKRVINVFHCEFSSERG [V13N]
answer_label: Fulfilled
--
polymer_sequence: KPIVPTDGKRVHVVFHCEFSSERG [I12H]
answer_label: Not fulfilled
--
polymer_sequence: KPIVPTDGPRVIVVFHCEFSSERG [K9P]
answer_label: Not fulfilled
--
polymer_sequence: KPIVPTDGKRLIVVFHCEFSSERG [V11L]
answer_label: Not fulfilled
--
polymer_sequence: KPIVPTDGKRVIEVFHCEFSSERG [V13E]
answer_label: Fulfilled
--
polymer_sequence: KPIVSTDGKRVIVVFHCEFSSERG [P5S]
answer_label: Not fulfilled
--
polymer_sequence: KPIVPTDGKRPIVVFHCEFSSERG [V11P]
answer_label: Not fulfilled
--
polymer_sequence: KPIVPTDGKRVIVVFHCEFSSEGG [R23G]
answer_label: Not fulfilled
--
polymer_sequence: KPIVPTDGKRVIVVFHCEFGSERG [S20G]
answer_label: Not fulfilled
--
polymer_sequence: KPIVPTDGKRVIVAFHCEFSSERG [V14A]
answer_label: Not fulfilled
--
polymer_sequence: KPIVPTDGKRVIVVFHCEFLSERG [S20L]
answer_label: Not fulfilled
--
polymer_sequence: KPIVPTDGKRVIVVFHCYFSSERG [E18Y]
answer_label: Not fulfilled
--
polymer_sequence: KPIVPTDGKRVIVVFHCVFSSERG [E18V]
answer_label: Fulfilled
--
polymer_sequence: KPIVPTDGKRVIVVFQCEFSSERG [H16Q]
answer_label: Not fulfilled
--
polymer_sequence: KPIVPTDGKRVIVVFHCEFSSEQG [R23Q]
answer_label: Not fulfilled
--
polymer_sequence: KPIVPTDGKRNIVVFHCEFSSERG [V11N]
answer_label: Not fulfilled
--
polymer_sequence: KPIVPTDGKRVIVVFHCEFVSERG [S20V]
answer_label: Not fulfilled
--
polymer_sequence: KPIVPTDGKRRIVVFHCEFSSERG [V11R]
answer_label: Not fulfilled
--
polymer_sequence: KPIVPTDGKRVIVVFHCEFASERG [S20A]
answer_label: Not fulfilled
--
polymer_sequence: KPIVPTDGKRVIVVFHCEFSSERH [G24H]
answer_label: Fulfilled
--
polymer_sequence: KPIFPTDGKRVIVVFHCEFSSERG [V4F]
answer_label: Not fulfilled
--
polymer_sequence: KPIVPTDGKRVIVVFHCEFSPERG [S21P]
answer_label: Fulfilled
--
polymer_sequence: KPIVPTDGKRVIVVFTCEFSSERG [H16T]
answer_label: Fulfilled
--
polymer_sequence: KPIVPTDGKRVIVVFHCECSSERG [F19C]
answer_label: Not fulfilled
--
polymer_sequence: KPIVPTDGKRVIFVFHCEFSSERG [V13F]
answer_label: Not fulfilled
--
polymer_sequence: KPIVPTDGNRVIVVFHCEFSSERG [K9N]
answer_label: Not fulfilled
--
polymer_sequence: KPIVPTDGKRVIVVFHDEFSSERG [C17D]
answer_label: Not fulfilled
--
polymer_sequence: KPIVPTDGKRVIVVFHREFSSERG [C17R]
answer_label: Not fulfilled
--
polymer_sequence: KPIVPTDGKRVIVVFHCEFNSERG [S20N]
answer_label: Not fulfilled
--
polymer_sequence: KPIVPTDGKRVIVVFHCEFSSERY [G24Y]
answer_label: Not fulfilled
--
polymer_sequence: KPIVPTDGKRVIVVFHCEFSSFRG [E22F]
answer_label: Fulfilled
--
polymer_sequence: KPIVPDDGKRVIVVFHCEFSSERG [T6D]
answer_label: Not fulfilled
--
polymer_sequence: KPIVPTDGKRVIVTFHCEFSSERG [V14T]
answer_label: Not fulfilled
--
polymer_sequence: KPIVPTDGWRVIVVFHCEFSSERG [K9W]
answer_label: Not fulfilled
--
polymer_sequence: KPIVPTDGKRVIVVFHAEFSSERG [C17A]
answer_label: Not fulfilled
--
polymer_sequence: KPIVPTDGKRVIVVFHCEMSSERG [F19M]
answer_label: Not fulfilled
--
polymer_sequence: KPIVPTHGKRVIVVFHCEFSSERG [D7H]
answer_label: Fulfilled
--
polymer_sequence: KPIVPTDGKRVIVVFHCEFSSERL [G24L]
answer_label: Not fulfilled
--
polymer_sequence: KPIVPTDGKRVIVVFHCEFSSERP [G24P]
answer_label: Not fulfilled
--
polymer_sequence: KPIVPTDGKRVIVVFHCEFCSERG [S20C]
answer_label: Not fulfilled
--
polymer_sequence: KPIVPTTGKRVIVVFHCEFSSERG [D7T]
answer_label: Fulfilled
--
polymer_sequence: KPAVPTDGKRVIVVFHCEFSSERG [I3A]
answer_label: Fulfilled
--
polymer_sequence: KPIVPTDGKRVIVVFHCEFSSEPG [R23P]
answer_label: Not fulfilled
--
polymer_sequence: KPIVPTDGKRMIVVFHCEFSSERG [V11M]
answer_label: Not fulfilled
--
polymer_sequence: KPIVPTDGKRVIVVFHQEFSSERG [C17Q]
answer_label: Not fulfilled
